Target: NK1 (Homo sapiens)
Assay: Signal transduction (ST), intracellular Ca++ (FLIPR), NK1 antagonistic activity
Format: cell-based
Details: read-out: pIC50 NK1 (converted)
PROPERTY MEASURED: IC50 (nM)

Past entries and their recorded results:
[
  {
    "COMPOUND": "O=C(c1ccno1)N1CCC(N2CCN([C@H]3CCN(C(=O)c4cc(C(F)(F)F)cc(C(F)(F)F)c4)[C@H](Cc4ccccc4)C3)CC2)C1 (stereo partly drawn)",
    "UNIT": "nM",
    "IC50": 31.6
  },
  {
    "COMPOUND": "O=C([C@H]1CCCN1)N1CCC(N2CCN([C@H]3CCN(C(=O)c4cc(C(F)(F)F)cc(C(F)(F)F)c4)[C@H](Cc4ccccc4)C3)CC2)C1 (stereo partly drawn)",
    "UNIT": "nM",
    "IC50": 20
  }
]

a. O=C(c1cc(C(F)(F)F)cc(C(F)(F)F)c1)N1CC[C@H](N2CCN(C3CCN(c4cnccn4)C3)CC2)C[C@H]1Cc1ccccc1 (stereo partly drawn)
b. O=C(C1CC1)N1CCC(N2CCN(C3CCN(C(=O)c4cc(C(F)(F)F)cc(C(F)(F)F)c4)C(Cc4ccccc4)C3)CC2)C1 (single isomer, unassigned) [Compound 70]
c. CC(C)(C)C(=O)N1CC[C@@H](N2CCN([C@H]3CCN(C(=O)c4cc(C(F)(F)F)cc(C(F)(F)F)c4)[C@H](Cc4ccc(Cl)c(Cl)c4)C3)CC2)C1
d. Cn1c(N2CCC(N3CCN([C@H]4CCN(C(=O)c5cc(C(F)(F)F)cc(C(F)(F)F)c5)[C@H](Cc5ccccc5)C4)CC3)C2)nc2ccccc21 (stereo partly drawn)
# desc sort on IC50 across 4 compounds I'd appreciate it if you listed the labels in the requested order.
d, a, b, c
(d: 100 nM, a: 25.1 nM, b: 12.6 nM, c: 7.94 nM)

###

Molecular target: NK1 (Homo sapiens)
Experiment: Signal transduction (ST), intracellular Ca++ (FLIPR), NK1 antagonistic activity
Type: cell-based
Conditions: read-out: pIC50 NK1 (converted)
PROPERTY MEASURED: IC50 (nM)

These solved cases illustrate the format of a correct answer.
[
  {
    "COMPOUND": "O=C(C1CCCCC1)N1CC[C@H](N2CCN([C@H]3CCN(C(=O)c4cc(C(F)(F)F)cc(C(F)(F)F)c4)[C@H](Cc4ccc(Cl)c(Cl)c4)C3)CC2)C1",
    "PROPERTY MEASURED": "IC50",
    "UNIT": "nM",
    "OBSERVED VALUE": 15.8
  },
  {
    "COMPOUND": "O=C(c1cccs1)N1CCC(N2CCN(C3CCN(C(=O)c4cc(C(F)(F)F)cc(C(F)(F)F)c4)C(Cc4ccc(F)c(F)c4)C3)CC2)C1 (single isomer, unassigned) [Compound 254]",
    "PROPERTY MEASURED": "IC50",
    "UNIT": "nM",
    "OBSERVED VALUE": 10
  }
]

A. Cn1ccc(C(=O)N2CCC(N3CCN([C@H]4CCN(C(=O)c5cc(C(F)(F)F)cc(C(F)(F)F)c5)[C@H](Cc5ccccc5)C4)CC3)C2)c1 (stereo partly shown)
B. O=C(Nc1ccccc1F)N1CCC(N2CCN([C@H]3CCN(C(=O)c4cc(C(F)(F)F)cc(C(F)(F)F)c4)[C@H](Cc4ccccc4)C3)CC2)C1 (stereo partly shown)
C. O=C(C1CC1)N1CC[C@H](N2CCN([C@@H]3CCN(C(=O)c4cc(C(F)(F)F)cc(C(F)(F)F)c4)[C@@H](Cc4ccc(Cl)c(Cl)c4)C3)CC2)C1
D. COc1ccc2[nH]c(C(=O)N3CCC(N4CCN([C@H]5CCN(C(=O)c6cc(C(F)(F)F)cc(C(F)(F)F)c6)[C@H](Cc6ccccc6)C5)CC4)C3)cc2c1 (stereo partly shown)
E. O=C1CC[C@H](C(=O)N2CCC(N3CCN([C@H]4CCN(C(=O)c5cc(C(F)(F)F)cc(C(F)(F)F)c5)[C@H](Cc5ccccc5)C4)CC3)C2)O1 (stereo partly shown)
Would you mind ranking these compounds by ascending IC50? Answer format: the labels, ordered as requested.
B, E, A, C, D
(B: 12.6 nM, E: 20 nM, A: 31.6 nM, C: 50.1 nM, D: 316 nM)

I. CC(C)C(=O)N1CCC(N2CCN([C@H]3CCN(C(=O)c4cc(C(F)(F)F)cc(C(F)(F)F)c4)[C@H](Cc4ccccc4)C3)CC2)C1 (stereo partly shown)
II. O=C(c1ccccc1Cl)N1CCC(N2CCN([C@H]3CCN(C(=O)c4cc(C(F)(F)F)cc(C(F)(F)F)c4)[C@H](Cc4ccccc4)C3)CC2)C1 (stereo partly shown)
III. O=C(c1ccccc1Cl)N1CC[C@H](N2CCN([C@H]3CCN(C(=O)c4cc(C(F)(F)F)cc(C(F)(F)F)c4)[C@H](Cc4ccc(Cl)c(Cl)c4)C3)CC2)C1
IV. O=C(c1ccc(F)c(F)c1)N1CCC(N2CCN([C@H]3CCN(C(=O)c4cc(C(F)(F)F)cc(C(F)(F)F)c4)[C@H](Cc4ccccc4)C3)CC2)C1 (stereo partly shown)
Hey, quick one: sort these by IC50, largest value first please. Please write the labels in the order that was asked for.
IV, II, I, III

a. O=C(c1cccs1)N1CC[C@@H](N2CCN([C@H]3CCN(C(=O)c4cc(C(F)(F)F)cc(C(F)(F)F)c4)[C@H](Cc4ccc(Cl)c(Cl)c4)C3)CC2)C1
b. Cc1nnsc1C(=O)N1CCC(N2CCN([C@H]3CCN(C(=O)c4cc(C(F)(F)F)cc(C(F)(F)F)c4)[C@H](Cc4ccccc4)C3)CC2)C1 (stereo partly shown)
c. O=C(c1ccccc1)N1CCC(N2CCN([C@@H]3CCN(C(=O)c4cc(C(F)(F)F)cc(C(F)(F)F)c4)[C@H](Cc4ccccc4)C3)CC2)C1 (stereo partly shown)
d. COc1cccc(NC(=O)N2CCC(N3CCN(C4CCN(C(=O)c5cc(C(F)(F)F)cc(C(F)(F)F)c5)C(Cc5ccccc5)C4)CC3)C2)c1 (stereo not shown)
Sort the 4 compounds by IC50; largest first, smallest last. Please respond with the labels ordered as the question requires.
c, b, d, a
(c: 200 nM, b: 63.1 nM, d: 31.6 nM, a: 12.6 nM)

###

Biological target: NK1 (Homo sapiens, UniProt P25103)
Sequence (P25103 whole entry): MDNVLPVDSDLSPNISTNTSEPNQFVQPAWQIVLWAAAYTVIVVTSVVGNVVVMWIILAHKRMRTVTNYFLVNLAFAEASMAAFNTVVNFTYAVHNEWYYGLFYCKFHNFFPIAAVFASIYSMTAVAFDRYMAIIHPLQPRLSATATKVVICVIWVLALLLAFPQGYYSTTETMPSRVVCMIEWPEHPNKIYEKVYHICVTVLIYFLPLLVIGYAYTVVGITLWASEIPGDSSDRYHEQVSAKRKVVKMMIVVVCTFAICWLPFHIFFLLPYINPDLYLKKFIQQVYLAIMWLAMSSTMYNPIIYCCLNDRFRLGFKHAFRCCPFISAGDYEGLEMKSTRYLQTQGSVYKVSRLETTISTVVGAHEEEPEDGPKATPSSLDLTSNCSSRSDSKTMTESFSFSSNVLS
Test: Signal transduction (ST), intracellular Ca++ (FLIPR), NK1 antagonistic activity
Type: cell-based
Details: read-out: pIC50 NK1 (converted)
PROPERTY MEASURED: IC50 (µM)

Known results for molecules:
[
  {
    "MOLECULE": "O=C(C1CC1)N1CCC(N2CCN([C@H]3CCN(C(=O)c4cc(C(F)(F)F)cc(C(F)(F)F)c4)[C@H](Cc4ccc(Cl)c(Cl)c4)C3)CC2)C1 (relative stereo) [Compound 162]",
    "IC50 [µM]": 0.01
  },
  {
    "MOLECULE": "O=C(c1ccccc1Cl)N1CCC(N2CCN(C3CCN(C(=O)c4cc(C(F)(F)F)cc(C(F)(F)F)c4)C(Cc4ccc(F)c(F)c4)C3)CC2)C1 (centres unmarked) [Compound 255]",
    "IC50 [µM]": 0.0158
  }
]

a. O=C(C(NCc1ccccc1)c1ccccc1)N1CCC(N2CCN([C@H]3CCN(C(=O)c4cc(C(F)(F)F)cc(C(F)(F)F)c4)[C@H](Cc4ccccc4)C3)CC2)C1 (some centres unmarked) [Compound 107]
b. CN(C)CC(=O)N1CCC(N2CCN([C@H]3CCN(C(=O)c4cc(C(F)(F)F)cc(C(F)(F)F)c4)[C@H](Cc4ccccc4)C3)CC2)C1 (some centres unmarked) [Compound 202]
c. O=C(c1cccs1)N1CC[C@H](N2CCN([C@H]3CCN(C(=O)c4cc(C(F)(F)F)cc(C(F)(F)F)c4)[C@H](Cc4ccccc4)C3)CC2)C1 [Compound 322]
Please order the records by their reported IC50, lowest number first. // rank by listing labels in the order requested
c, b, a
(c: 0.00794 µM, b: 0.0398 µM, a: 0.1 µM)

###

Molecular target: NK1 (Homo sapiens, UniProt P25103)
Assay: Signal transduction (ST), intracellular Ca++ (FLIPR), NK1 antagonistic activity
Assay type: cell-based
Conditions: read-out: pIC50 NK1 (converted)
PROPERTY MEASURED: IC50 (nM)

[
  {
    "COMPOUND": "O=C(c1cccc2ccccc12)N1CCC(N2CCN([C@H]3CCN(C(=O)c4cc(C(F)(F)F)cc(C(F)(F)F)c4)[C@H](Cc4ccccc4)C3)CC2)C1 (some centres unmarked)",
    "EXPERIMENTAL SYSTEM": "NK1 (Homo sapiens, UniProt P25103)",
    "UNIT": "nM",
    "IC50": 39.8
  },
  {
    "COMPOUND": "O=C(c1cc(C(F)(F)F)cc(C(F)(F)F)c1)N1CCC(N2CCN(C3CCN(Cc4ccccc4)C3)CC2)CC1Cc1ccc(F)c(F)c1 (single isomer, unassigned) [Compound 222]",
    "EXPERIMENTAL SYSTEM": "NK1 (Homo sapiens, UniProt P25103)",
    "UNIT": "nM",
    "IC50": 50.1
  }
]

I. CC(C)(C)C(=O)N1CC[C@H](N2CCN([C@@H]3CCN(C(=O)c4cc(C(F)(F)F)cc(C(F)(F)F)c4)[C@@H](Cc4ccc(Cl)c(Cl)c4)C3)CC2)C1
II. O=C(c1ccccc1Cl)N1CC[C@@H](N2CCN([C@H]3CCN(C(=O)c4cc(C(F)(F)F)cc(C(F)(F)F)c4)[C@H](Cc4ccc(Cl)c(Cl)c4)C3)CC2)C1
III. O=C(c1cc(COCc2ccccc2)cs1)N1CCC(N2CCN([C@H]3CCN(C(=O)c4cc(C(F)(F)F)cc(C(F)(F)F)c4)[C@H](Cc4ccccc4)C3)CC2)C1 (some centres unmarked)
Sequence the entries by IC50, beginning with the highest number. Respond with an ordered listing of the labels, as requested.
III, I, II

This collection of values is drawn from patent US7795261B2.
